Origin of the recorded values: PubChem BioAssay (NCI)

Provide the reported growth of each item.
# System: MDA-MB-231 breast
# Assay explanation: NCI-60 one-dose screen, 48 h (100 = growth as untreated, 0 = no growth, -100 = all killed)
# Condition context: 10 µM unless noted
About 83,000 compounds went through this panel and 20% of them were active in at least one assay; those are over-represented in the sample as a whole.
Numbers only, in %.

Please review the following examples before continuing.
Cn1c(=O)c2c(ncn2CC[N+](C)(C)C)n(C)c1=O; 104
Cc1nc2nc(N)nc(N)c2nc1C; 94
Cc1noc(C)c1-c1cc(O)cc(C(O)c2ccccc2)c1 (stereo not given); 62.4
CN1CCOCCOCCOc2ccccc2NC(=O)c2nc(cnc2N)-c2ccc(cc2)S1(=O)=O; 66.3

Shifting focus to the compound that follows.
Input: Quick check: growth of CC(C)c1c(C(=O)Nc2ccccc2)c(-c2ccccc2)c(-c2ccc(F)cc2)n1CC[C@@H]1CC=CC(=O)O1 ?
Output: -25.6

----------
Give measured growth for each item. Keep answers brief.
# System: HOP-92 NSCLC
# Assay explanation: NCI-60 one-dose screen, 48 h (100 = growth as untreated, 0 = no growth, -100 = all killed)
# Condition context: 10 µM unless noted
This is part of a sample that, as a whole, favours compounds with a hit. Of some 83,000 tested, about 20% had one in any assay.
Give bare numbers, in %.

O=C(/C=C/c1ccc(Cl)cc1)/C=C/c1cc2ccccc2[nH]c1=O; 92.5
CCOC(=O)c1cnc2ccc(Br)cc2c1Nc1cccc(S(=O)(=O)NC)c1; 102
CN1CCN(Cc2ccc(NC(=O)c3[nH]ncc3Nc3ccnc4ccsc34)cc2)CC1; 76.2

For each of the compounds below, note its growth.
1. COC1/C=C\OC2(C)Oc3c(C)c(O)c4c(O)c(c(CN(C)CCO)c(O)c4c3C2=O)NC(=O)/C(C)=C\C=C/C(C)C(O)C(C)C(O)C(C)C(OC(C)=O)C1C (stereo not given)
2. COc1cccc2c1C(=O)c1c(O)c3c(c(O)c1C2=O)C[C@@](O)(/C(C)=N/NC(=O)c1ccc(Cl)cc1)C[C@@H]3OC1CC(N)C(O)C(C)O1 (stereo not given in full)
3. O=C1CC(c2nc3ccccc3s2)CN1C1CCCCC1 (stereo not given)
4. Nc1cc(-c2nc3sccn3c2-c2ccnc(NCCCNS(=O)(=O)c3ccc(F)cc3)n2)ccc1F
5. CC(C)(C)n1cc(-c2ccnc(NCCCNS(=O)(=O)c3cccc4ccccc34)c2)c(-c2cccc(O)c2)n1
6. COc1ccc(-c2cn3c(ccc4ccccc43)n2)cc1

Output:
115
-6.16
84.9
96.9
37.7
92.1

Count: 6. Required value per item: growth.
1. Nc1nc2ccc(-c3nc4ccc5[nH]ncc5c4c4c3CCC4)cc2s1
2. Clc1nc(Cl)c2c3c(sc2n1)CCCC3
3. C[C@]12C[C@@H](c3ccoc3)OC(=O)[C@@H]1CC[C@]1(C)[C@@H]2CC[C@@H](O)[C@]1(C)O
4. C=C1C(=O)O[C@H]2[C@H]1CC/C(Cn1cc(Cn3ccc4ccccc43)nn1)=C\CC[C@@]1(C)O[C@@H]21
5. O=C1Nc2c(ccc(Cl)c2Cl)/C1=C/c1cc(Br)c(O)c(Br)c1
6. CC(=O)OC1Oc2cc(C)c(C)cc2-c2oc(=O)c(-c3cc4ccc(N(C)C)cc4oc3=O)cc21 (stereo not given)

Output:
[-4.3, 103, 54.2, -36.3, 67.1, 77.8]

Return reported growth values for all items listed beneath this line.
1. CCCCN(CCCC)CCC(C)(O)c1cc2ccccc2c2ccccc12 (stereo not given)
2. CCOC(=O)c1cnc2ccc(OC)cc2c1Nc1cccc(S(=O)(=O)NC)c1

Output:
44.2
112

Below are 3 compounds. Give each one its growth.
1. COc1cc2c(cc1O)CCc1cc(O)cc(OC)c1-2
2. Clc1ccc(-c2nnc(COc3ccccc3Cl)o2)cc1
3. CCOC(=O)CC(C)=N

Output:
1: 103; 2: 49.2; 3: 99.4

----------
# Test system: HCT-116 colon
# Assay explanation: NCI-60 one-dose screen, 48 h
# Condition context: 10 µM unless noted
This is part of a sample that, as a whole, favours compounds with a hit. Of some 83,000 tested, about 20% had one in any assay. The source made the active and inactive calls. Rule for the calls: active = growth percent below 10; inactive = the rest.
Hi there, use one of these labels in your reply, thanks! true (1) (active), false (0) (inactive)

Nc1c(C(=O)Nc2cccc3c2OCCO3)sc2nc3c(cc12)CN(Cc1ccccc1)CC3; false (0)

Input: Could you please tell me the result logged for CCN(CC)CC#CCOC(=O)[C@]1(C)CCC[C@@]2(C)[C@H]1CC(C=O)=C1C=C(C(C)C)CC[C@@H]12 in this assay?
Output: false (0)

Input: Please share the test call associated with COc1ccc(/C=C2\N=C3Sc4cc(Cl)ccc4C(=O)N3C2=O)cc1 .
Output: false (0)

Input: Per the assay record, what outcome was assigned to CCCCNc1ccc2c3c1cccc3c(=O)n1c3ccccc3nc21 ?
Output: false (0)

Input: Outcome? c1ccc(CSc2ncnc3nc[nH]c23)nc1
Output: false (0)

----------
# System: SR leukemia
# Assay explanation: NCI-60 one-dose screen, 48 h (100 = growth as untreated, 0 = no growth, -100 = all killed)
# Condition context: 10 µM unless noted
About 83,000 compounds went through this panel and 20% of them were active in at least one assay; those are over-represented in the sample as a whole.
I'd be grateful if you could share measured growth for these entries.
Answers are plain numbers, in %.

COC(=O)[C@@H]1CC[C@]2(C)[C@H](CC[C@@H]3O[C@@]32C)[C@@]1(C)CC(=O)c1ccoc1; 86.6
O=C(NCc1cccc(C(F)(F)F)c1)[C@H](CCC(=O)N1CCN(C2CCCCC2)CC1)N1C(=O)[C@@H](N2C(=O)OC[C@@H]2c2ccccc2)[C@H]1/C(Cl)=C/c1ccccc1; -36.3
NS(=O)(=O)N(c1cc(C(F)(F)F)cc(C(F)(F)F)c1)C1CCN(Cc2ccc(F)cc2)CC1; -35.1
Cl/C(=N\Nc1ccccc1)c1ccccc1; 123
CC(C)Oc1nc2c(c(=O)n(C)c(=O)n2C)n1C; 104

Your task in this section: give growth for each listed record.
1. CC(=O)OCC(=O)C1CCC=CC1OC(C)=O (stereo not drawn)
2. COc1cc(/C=N\NC(=O)CN2CCN(c3cc4c(cc3F)c(=O)c(C(=O)N/N=C/c3ccc(O)c(OC)c3)cn4C3CC3)CC2)ccc1O
3. O=C1CC(c2nc3ccccc3s2)CN1C1CCCCC1 (stereo not drawn)
4. COC(=O)C12C3C(=O)N(c4ccc(OC)cc4)C(=O)C3C(c3cn(-c4ccccc4)nc3C)N1[C@H](c1cn(-c3ccccc3)nc1C)[C@@H]1C(=O)N(c3ccc(OC)cc3)C(=O)[C@@H]12 (stereo partly drawn)
5. Cn1c2ccccc2c2c3[nH]c(=O)[nH]c(=O)c3c3c4ccccc4n(C)c3c21
6. O=C1C[C@H](Sc2nc(-c3ccc(F)cc3)cc(C(F)(F)F)n2)[C@H]2CO[C@@H]1O2

Output:
1. 98.9
2. 33.9
3. 97.1
4. 91
5. 13.7
6. 17.9

Dear colleague, could you please provide growth for the compounds listed below?
1. CCN(CC)CCCNc1cc(OC)cc2nc3cc(Cl)ccc3nc12
2. C/C(Cc1ccc(Cl)cc1)=C(\c1ccc(OCCN2CCCCCC2)cc1)c1ccc(OC(=O)Cc2ccccc2)cc1
3. c1c2c(cc3c1OCO3)Cc1cc3c(cc1Cc1cc4c(cc1C2)OCO4)OCO3
4. Cc1ccc2c(c1)C(=O)c1c-2c(OCCCN(C)C)nc2ccccc12
5. C(=N\Nc1nnn(Cc2ccccc2)n1)/c1ccccc1

Output:
1. -34.6
2. 1.29
3. 91.9
4. -27.5
5. 17.2

Each of the following entries comes with a recorded value; kindly state growth for each.
1. CCCCCCNC(=O)Oc1ccc(/C(=C(\C)c2ccccc2)c2ccc(OCCN(CC)CC)cc2)cc1
2. O=C(O)c1cn(C2CC2)c2cc(N3CCN(Cc4nc5c(cnn5-c5ccc([N+](=O)[O-])cc5)c(=O)[nH]4)CC3)c(F)cc2c1=O

Output:
[1.65, 97.5]

----------
# Test system: UACC-257 melanoma
# Assay explanation: NCI-60 one-dose screen, 48 h (100 = growth as untreated, 0 = no growth, -100 = all killed)
# Condition context: 10 µM unless noted
About 83,000 compounds went through this panel and 20% of them were active in at least one assay; those are over-represented in the sample as a whole. Calls of active or inactive are those of the source. The calls were made as follows: active = growth percent below 10; inactive = the rest.
For each record, write down the corresponding growth.

The examples below pair each entry with its known result.
COC(=O)[C@H](C(C)C)n1c(=O)c2cc(OC)c(OC)cc2c2cnc3[nH]ccc3c21; 78.7% (inactive)
CCCCCCCCCCCCCCCC(=O)OCC1OC(n2cnc3c(=S)nc(N)[nH]c32)C(OC(=O)CCCCCCCCCCCCCCC)C1OC(=O)CCCCCCCCCCCCCCC (centres undefined); 88.7% (inactive)
CCN(C(=O)CN1CCN(c2cc3c(cc2F)c(=O)c(C(=O)O)cn3C2CC2)CC1)c1nc(-c2ccc(OC)cc2)cs1; 43.1% (inactive)

Now consider the entry below.
Input: # query: growth of entry Cc1[nH]n(-c2ccccc2)c2nc3nncc3c(-c3ccc(Cl)cc3)c12
Output: 101% (inactive)
